Here, each record is paired with measured pIC50 data.
# SYSTEM_NAME: full-length beta-Catenin (Uniprot ID P35222) (Homo sapiens)
# Construct: 10 nM full-length beta-Catenin (Uniprot ID P35222)
# PROCEDURE_DETAILS: Fluorescence polarization IC50 (beta-catenin / 5FAM-TCF4 10-53 competition)
# Assay type: binding
# STUDY_CONDITIONS: fluorescence polarization; read-out: beta-Catenin FP IC50
pIC50 here is simply -log10 of the concentration when that concentration is written in mol/L.

Reference set (2 entries):
CC(=O)N1CCC[C@]12CC=CCCCC1(CCCC=CCCCOC(=O)N3CC[C@@](C(=O)N[C@@H](Cc4ccccc4)C(=O)N[C@@H](Cc4csc5ccccc45)C(=O)N[C@@H](Cc4c[nH]cn4)C(N)=O)(C3)NC(=O)[C@H](CC(N)=O)NC(=O)[C@H](Cc3ccccc3)NC(=O)[C@H](C)NC(=O)[C@H](CCCCNC(C)C)NC(=O)[C@H](CCC(N)=O)NC(=O)[C@H](CC(=O)O)NC1=O)NC(=O)[C@H](CC1CCCCC1)NC(=O)[C@H](CC(N)=O)NC2=O (some centres unmarked): 6.87
CC(=O)N1CCC[C@]12CC=CCCCCC1(CCCCC=CCCOC(=O)N3CC[C@@](C(=O)N[C@@H](Cc4ccccc4C(F)(F)F)C(=O)N[C@@H](Cc4csc5ccccc45)C(=O)N[C@@H](C)C(N)=O)(C3)NC(=O)[C@H](CC(C)C)NC(=O)[C@H](Cc3ccccc3)NC(=O)[C@H](C)NC(=O)[C@H](CCC(N)=O)NC(=O)[C@H](Cc3cccc(C(=O)O)c3)NC(=O)[C@H](CC(=O)O)NC1=O)NC(=O)[C@H](CC(C)(C)C)NC(=O)[C@H](CC(=O)O)NC2=O (some centres unmarked) [I-2510]: 7.62

Req: Bench note: what pIC50 did CC[C@H](C)[C@@H]1NC(=O)[C@H](CC(=O)O)NC(=O)[C@]2(CC=CCCCC3(CCCC=CCCCCCC[C@@](C)(C(=O)N[C@@H](Cc4ccccc4OC)C(=O)N[C@@H](Cc4csc5ccccc45)C(=O)N[C@@H](Cc4c[nH]cn4)C(N)=O)NC(=O)[C@H](CC(N)=O)NC(=O)[C@H](Cc4ccccc4)NC(=O)[C@H](C)NC(=O)[C@H](C)NC(=O)[C@H](CCC(=O)O)NC(=O)[C@H](CC(=O)O)NC3=O)NC1=O)CCCN2C(C)=O (some centres unmarked) show?
Resp: 7.70

Req: Consider next the molecule CC(=O)N1CCC[C@]12CC=CCCCC1(CCCC=CCCCCCC[C@@](C)(C(=O)N[C@@H](Cc3ccsc3)C(=O)N[C@@H](Cc3csc4ccccc34)C(=O)N[C@@H](CCO)C(N)=O)NC(=O)[C@H](CC(C)C)NC(=O)[C@H](Cc3ccccc3)NC(=O)[C@H](C)NC(=O)[C@H](C)NC(=O)[C@H](CC(=O)O)NC(=O)[C@H](CC(=O)O)NC1=O)NC(=O)[C@H](CC(C)(C)C)NC(=O)[C@H](CC(=O)O)NC2=O (some centres unmarked) in the same way.
Resp: 7.36

Req: Consider next the molecule CCCC[C@@H]1NC(=O)[C@H](Cc2ccccc2)NC(=O)[C@H](C)NC(=O)[C@H](C)NC(=O)[C@H](Cc2cccc(C(=O)O)c2)NC(=O)[C@H](CC(=O)O)NC(=O)C2(CCCC=CCCCOC(=O)N3CC[C@@](C(=O)N[C@@H](Cc4ccccc4C(F)(F)F)C(=O)N[C@@H](Cc4csc5ccccc45)C(=O)N[C@@H](CCC(=O)N(C)C)C(N)=O)(C3)NC1=O)CCCC=CC[C@]1(CCCN1C(C)=O)C(=O)N[C@@H](CC(=O)O)C(=O)N[C@@H](CC(C)(C)C)C(=O)N2 (some centres unmarked) in the same way.
Resp: 7.55

====

# SYSTEM_NAME: full-length beta-Catenin (Uniprot ID P35222) (Homo sapiens, UniProt P35222)
# Construct: 10 nM full-length beta-Catenin (Uniprot ID P35222)
# Sequence (P35222 whole entry): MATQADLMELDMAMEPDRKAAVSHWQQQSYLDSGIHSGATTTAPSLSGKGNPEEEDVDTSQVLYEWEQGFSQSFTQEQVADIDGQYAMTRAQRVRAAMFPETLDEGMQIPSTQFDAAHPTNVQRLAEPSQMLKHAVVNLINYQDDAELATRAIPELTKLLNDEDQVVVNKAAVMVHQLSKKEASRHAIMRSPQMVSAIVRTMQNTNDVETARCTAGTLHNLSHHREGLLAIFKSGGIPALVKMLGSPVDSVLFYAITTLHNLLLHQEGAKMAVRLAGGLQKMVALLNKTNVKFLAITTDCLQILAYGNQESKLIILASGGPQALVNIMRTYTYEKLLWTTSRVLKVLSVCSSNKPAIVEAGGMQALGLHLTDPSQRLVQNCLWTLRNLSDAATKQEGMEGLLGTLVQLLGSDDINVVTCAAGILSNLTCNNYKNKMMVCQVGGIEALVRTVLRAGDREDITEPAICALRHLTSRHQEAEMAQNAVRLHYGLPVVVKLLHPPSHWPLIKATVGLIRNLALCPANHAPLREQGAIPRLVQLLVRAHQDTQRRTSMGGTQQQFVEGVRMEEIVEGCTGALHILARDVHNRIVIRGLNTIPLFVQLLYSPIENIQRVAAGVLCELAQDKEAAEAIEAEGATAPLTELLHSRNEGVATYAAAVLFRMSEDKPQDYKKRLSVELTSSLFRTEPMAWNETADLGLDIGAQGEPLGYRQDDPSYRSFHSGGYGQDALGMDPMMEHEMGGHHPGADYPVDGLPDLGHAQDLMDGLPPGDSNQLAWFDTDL
# PROCEDURE_DETAILS: Fluorescence polarization IC50 (beta-catenin / 5FAM-TCF4 10-53 competition)
# Format: binding
# STUDY_CONDITIONS: fluorescence polarization; read-out: beta-Catenin FP IC50
Here, each record is paired with measured IC50 data.
State just the number; it will be interpreted in nM.

Req: Bench note: what IC50 did CC(=O)N1CCC[C@]12CC=CCCCC1(CCCC=CCCCOC(=O)N3CC[C@@](C(=O)N[C@@H](Cc4ccsc4)C(=O)N[C@@H](Cc4csc5ccccc45)C(=O)N[C@@H](CC(N)=O)C(N)=O)(C3)NC(=O)[C@H](CC(N)=O)NC(=O)[C@H](Cc3ccccc3)NC(=O)[C@H](C)NC(=O)C(C)(C)NC(=O)[C@H]([C@@H](C)O)NC(=O)[C@H](CC(N)=O)NC1=O)NC(=O)[C@H](CC(C)(C)C)NC(=O)[C@H](CC(=O)O)NC2=O (stereo partly drawn) show?
Resp: 147

Req: Consider next the molecule CC(=O)N1CCC[C@]12CC=CCCCC1(CCCC=CCCCOC(=O)N3CC[C@@](C(=O)N[C@@H](Cc4ccsc4)C(=O)N[C@@H](Cc4csc5ccccc45)C(=O)N[C@@H](CCC(N)=O)C(N)=O)(C3)NC(=O)[C@H](CC(N)=O)NC(=O)[C@H](Cc3ccccc3)NC(=O)[C@H](C)NC(=O)[C@H](C)NC(=O)[C@H](CC(N)=O)NC(=O)[C@H](CCC(N)=O)NC1=O)NC(=O)[C@H](CC(C)(C)C)NC(=O)[C@H](CC(=O)O)NC2=O (stereo partly drawn) in the same way.
Resp: 368

Req: Consider next the molecule CC(=O)N1CCC[C@]12CC=CCCCC1(CCCC=CCCCOC(=O)N3CC[C@@](C(=O)N[C@@H](Cc4ccsc4)C(=O)N[C@@H](Cc4csc5ccccc45)C(=O)N[C@@H](CCC(N)=O)C(N)=O)(C3)NC(=O)[C@H](Cn3cc(CN4CCOCC4)nn3)NC(=O)[C@H](Cc3ccccc3)NC(=O)[C@H](C)NC(=O)[C@H](C)NC(=O)[C@H](CN(CC(=O)O)CC(F)(F)F)NC(=O)[C@H](CC(=O)O)NC1=O)NC(=O)[C@H](CC(C)(C)C)NC(=O)[C@H](CC(=O)O)NC2=O (stereo partly drawn) [I-1867] in the same way.
Resp: 7

====

# PROCEDURE_DETAILS: Solubility in PBS
# Type: physicochemical
REPORTED_PROPERTY: Solubility (µM)
State just the number; it will be interpreted in µM.

Req: Bench note: what Solubility did CC[C@H](C)[C@@H]1NC(=O)[C@H](C)NC(=O)[C@H](CN(CC(=O)O)CC(F)(F)F)NC(=O)[C@H](CC(=O)O)NC(=O)C2(CCCC=CCCCOC(=O)N3CC[C@@](C(=O)N[C@@H](Cc4ccccc4Cl)C(=O)N[C@@H](Cc4csc5ccccc45)C(=O)N[C@@H](CCC(N)=O)C(N)=O)(C3)NC(=O)[C@H](CC(N)=O)NC(=O)[C@H](Cc3ccccc3)NC1=O)CCCC=CC[C@]1(CCCN1C(C)=O)C(=O)N[C@@H](CC(=O)O)C(=O)N[C@@H](CC(C)(C)C)C(=O)N2 (stereo partly shown) show?
Resp: 10

====

# PROCEDURE_DETAILS: CHI Log D procedure
# Format: physicochemical
# STUDY_CONDITIONS: pH 7.4, CHI Log D
REPORTED_PROPERTY: chromatographic logD
// keep it numeric: no unit symbol after the value

Reference set (5 entries):
CC(=O)N[C@@H](Cc1ccccc1)C(=O)N[C@@H](CC(=O)O)C(=O)N[C@@H](C)C(=O)N[C@]1(C)CCCCCCC=CCOC(=O)N2CC[C@@](C(=O)N[C@@H](Cc3ccccc3)C(=O)N[C@@H](Cc3c[nH]c4ccccc34)C(=O)N[C@@H](CCC(N)=O)C(N)=O)(C2)NC(=O)[C@H](C(C)C)NC(=O)[C@H](Cc2ccccc2)NC(=O)[C@H](C)NC(=O)[C@H](C)NC(=O)[C@H](CCCC(=O)O)NC(=O)[C@H](CC(=O)O)NC1=O (single isomer, unassigned): 1.33
CC(=O)N1CCC[C@]12CC=CCCCC1(CCCC=CCCCOC(=O)N3CC[C@@](C(=O)N[C@@H](Cc4ccc5ccccc5c4)C(=O)N[C@@H](Cc4csc5ccccc45)C(=O)N[C@@H](Cc4c[nH]cn4)C(N)=O)(C3)NC(=O)[C@H](CC(N)=O)NC(=O)[C@H](Cc3ccccc3)NC(=O)[C@H](C)NC(=O)[C@H](C)NC(=O)[C@H](CC(=O)O)NC(=O)[C@H](CC(=O)O)NC1=O)NC(=O)[C@H](CC(C)(C)C)NC(=O)[C@H](CC(=O)O)NC2=O (stereo partly shown): 2.39
CC(=O)N[C@@H](Cc1ccccc1)C(=O)N[C@@H](CC(=O)O)C(=O)N[C@@H](C)C(=O)N[C@]1(C)CCCCCCC=CCOC(=O)N2CC[C@@](C(=O)N[C@@H](Cc3ccccc3)C(=O)N[C@@H](Cc3c[nH]c4ccccc34)C(=O)N[C@@H](CCC(N)=O)C(N)=O)(C2)NC(=O)[C@H](C(C)C)NC(=O)[C@H](CC2CCCCC2)NC(=O)[C@H](C)NC(=O)[C@H](C)NC(=O)[C@H](CC(=O)O)NC(=O)[C@H](CC(=O)O)NC1=O (single isomer, unassigned): 1.33
CC(=O)N1CCC[C@]12CC=CCCCC1(CCCC=CCCCOC(=O)N3CC[C@@](C(=O)N[C@@H](Cc4ccccc4Cl)C(=O)N[C@@H](Cc4csc5ccccc45)C(=O)N[C@@H](CO)C(N)=O)(C3)NC(=O)[C@H]([C@@H](C)O)NC(=O)[C@H](Cc3ccccc3)NC(=O)[C@H](C)NC(=O)[C@H](C)NC(=O)[C@H](CC(=O)O)NC(=O)[C@H](CC(=O)O)NC1=O)NC(=O)[C@H](Cc1cccc3ccccc13)NC(=O)[C@H](CC(=O)O)NC2=O (stereo partly shown): 2.49
CC(=O)N1CCC[C@]12CC=CCCCC1(CCCC=CCCCOC(=O)N3CC[C@@](C(=O)N[C@@H](CC4CCCCC4)C(=O)N[C@@H](Cc4csc5ccccc45)C(=O)N[C@@H](CO)C(N)=O)(C3)NC(=O)[C@H](CO)NC(=O)[C@H](Cc3ccccc3)NC(=O)[C@H](C)NC(=O)[C@H](C)NC(=O)[C@H](CC(=O)O)NC(=O)[C@H](CC(=O)O)NC1=O)NC(=O)[C@H](CC(C)(C)C)NC(=O)[C@H](CC(=O)O)NC2=O (stereo partly shown): 2.44

Req: Bench note: what chromatographic logD did CC(=O)N1CCC[C@]12CC=CCCCC1(CCCC=CCCCCCC[C@@](C)(C(=O)N[C@@H](CC(=O)O)C(=O)N[C@@H](Cc3c[nH]c4ccccc34)C(=O)N[C@@H](CCC(N)=O)C(N)=O)NC(=O)[C@H](C(C)C)NC(=O)[C@H](Cc3ccccc3)NC(=O)[C@H](C)NC(=O)[C@H](C)NC(=O)[C@H](CC(=O)O)NC(=O)[C@H](CC(=O)O)NC1=O)NC(=O)[C@H](C)NC(=O)[C@H](CC(=O)O)NC2=O (stereo partly shown) show?
Resp: 1.29

Req: Consider next the molecule CC(=O)N1CCC[C@]12CC=CCCCC1(CCCC=CCCCCCC[C@@](C)(C(=O)N[C@@H](Cc3ccccc3)C(=O)N[C@@H](Cc3csc4ccccc34)C(=O)N[C@@H](Cc3c[nH]cn3)C(N)=O)NC(=O)[C@H](CC(N)=O)NC(=O)[C@H](Cc3ccccc3)NC(=O)[C@H](C)NC(=O)[C@H](C)NC(=O)[C@H](CCC(=O)O)NC(=O)[C@H](CC(=O)O)NC1=O)NC(=O)[C@H](CC(C)C)NC(=O)[C@H](CC(=O)O)NC2=O (stereo partly shown) in the same way.
Resp: 2.47

Req: Consider next the molecule CC(=O)N1CCC[C@]12CC=CCCCC1(CCCC=CCCCCCC[C@@](C)(C(=O)N[C@@H](Cc3ccccc3)C(=O)N[C@@H](Cc3c[nH]c4ccccc34)C(N)=O)NC(=O)[C@H](C(C)C)NC(=O)[C@H](Cc3ccccc3)NC(=O)[C@H](C)NC(=O)[C@H](C)NC(=O)[C@H](CCC(=O)O)NC(=O)[C@H](CC(=O)O)NC1=O)NC(=O)[C@H](C)NC(=O)[C@H](CC(=O)O)NC2=O (stereo partly shown) in the same way.
Resp: 2.22

Req: Consider next the molecule CC(=O)N1CCC[C@]12CC=CCCCC1(CCCC=CCCCOC(=O)N3CC[C@@](C(=O)N[C@@H](Cc4ccccc4Cl)C(=O)N[C@@H](Cc4csc5ccccc45)C(=O)N[C@@H](C(N)=O)[C@H](C)O)(C3)NC(=O)[C@H](CC(N)=O)NC(=O)[C@H](Cc3ccccc3)NC(=O)[C@H](C)NC(=O)[C@H](C)NC(=O)[C@H](CCC(=O)O)NC(=O)[C@H](CC(=O)O)NC1=O)NC(=O)[C@H](CC(C)(C)C)NC(=O)[C@H](CC(=O)O)NC2=O (stereo partly shown) in the same way.
Resp: 2.42

Req: Consider next the molecule CC(=O)N1CCC[C@]12CC=CCCCC1(CCCC=CCCCOC(=O)N3CC[C@@](C(=O)N[C@@H](Cc4ccccc4Cl)C(=O)N[C@@H](Cc4csc5ccccc45)C(=O)N[C@@H](CO)C(N)=O)(C3)NC(=O)[C@H](CC3CCCCC3)NC(=O)[C@H](Cc3ccccc3)NC(=O)[C@H](C)NC(=O)[C@H](C)NC(=O)[C@H](CC(=O)O)NC(=O)[C@H](CC(=O)O)NC1=O)NC(=O)[C@H](CC1CCCCC1)NC(=O)[C@H](CC(=O)O)NC2=O (stereo partly shown) in the same way.
Resp: 2.99
